target: Amine oxidase [flavin-containing] A (Homo sapiens, UniProt P21397)
Sequence (P21397 whole entry): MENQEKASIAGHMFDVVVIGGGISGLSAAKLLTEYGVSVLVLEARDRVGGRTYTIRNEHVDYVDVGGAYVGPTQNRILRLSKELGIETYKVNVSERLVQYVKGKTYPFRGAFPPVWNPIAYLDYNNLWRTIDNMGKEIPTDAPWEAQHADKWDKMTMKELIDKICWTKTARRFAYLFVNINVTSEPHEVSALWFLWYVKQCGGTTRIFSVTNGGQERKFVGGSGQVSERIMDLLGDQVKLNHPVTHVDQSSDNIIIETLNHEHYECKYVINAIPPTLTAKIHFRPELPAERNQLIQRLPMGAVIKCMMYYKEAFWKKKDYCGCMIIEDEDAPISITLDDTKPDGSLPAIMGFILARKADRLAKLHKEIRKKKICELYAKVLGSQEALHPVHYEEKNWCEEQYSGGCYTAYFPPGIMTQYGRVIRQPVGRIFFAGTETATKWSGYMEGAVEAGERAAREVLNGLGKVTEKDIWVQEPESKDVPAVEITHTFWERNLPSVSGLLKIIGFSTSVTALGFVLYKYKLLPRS
assay explanation: Inhibition of recombinant human MAO-A expressed in baculovirus infected insect cells assessed as reduction in H2O2 production at 100 uM using p-tyramine as substrate pretreated for 15 mins followed by substrate addition and measured over 15 mins by Amplex red reagent based fluorimetric assay relative to control
condition: 0.25 h
Give inhibition at 100 µM for every item shown.
Answer shape: numeric part, then the unit.

The cases that follow already have their inhibition at 100 µM on record.
> print(dat)
                     smiles.code                                    target  result
1  Cc1cccc2cc(-c3ccc(Br)cc3)oc12  Amine oxidase [flavin-containing] A (Homo sapiens, UniProt P21397)   46.8%
2     Brc1cccc(-c2cc3ccccc3o2)c1  Amine oxidase [flavin-containing] A (Homo sapiens, UniProt P21397)     51%
3      Cc1cccc2cc(-c3ccccc3)oc12  Amine oxidase [flavin-containing] A (Homo sapiens, UniProt P21397)   53.9%

Attention now shifts to the item below.
Name the recorded inhibition at 100 µM for Cc1cccc2cc(-c3ccccc3Br)oc12 .
44.8%
